Field: koff. Provide a value for each of the binders that follow.
# TESTED_TARGET: T1, PHF-tau (paired helical filament tau isolated from Alzheimer's disease brain) (human, UniProt P10636-8 2-441, limits assumed, hyper-phosphorylated, aggregated; sites not listed for the preparation)
# T1 construct: also called enriched PHF-tau; ePHF-tau
# T1 sequence (P10636 other isoform, or with tags, fused parts or gaps limits assumed): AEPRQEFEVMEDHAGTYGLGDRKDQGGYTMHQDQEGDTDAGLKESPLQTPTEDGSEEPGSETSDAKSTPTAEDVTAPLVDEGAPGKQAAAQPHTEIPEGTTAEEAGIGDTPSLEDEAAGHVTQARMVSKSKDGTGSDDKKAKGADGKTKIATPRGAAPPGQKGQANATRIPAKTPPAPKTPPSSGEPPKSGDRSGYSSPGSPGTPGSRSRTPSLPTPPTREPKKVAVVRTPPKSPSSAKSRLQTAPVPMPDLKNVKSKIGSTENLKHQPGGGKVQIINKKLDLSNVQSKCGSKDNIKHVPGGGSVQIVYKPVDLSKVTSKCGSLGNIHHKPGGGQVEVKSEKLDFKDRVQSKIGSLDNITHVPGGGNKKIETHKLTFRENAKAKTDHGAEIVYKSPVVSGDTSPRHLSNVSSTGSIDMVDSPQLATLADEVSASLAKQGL
# PROTOCOL_SUMMARY: SPR ProteOn, PHF-tau capture-coupled via HT7, bivalent model
Field format: number, assumed s⁻¹, no unit text.

The binder listed as B282 (antibody, human IgG1, V domains shown, Humanized (HFA) PT3 variant, human IgG1/kappa; also called VH93/VL77) VH: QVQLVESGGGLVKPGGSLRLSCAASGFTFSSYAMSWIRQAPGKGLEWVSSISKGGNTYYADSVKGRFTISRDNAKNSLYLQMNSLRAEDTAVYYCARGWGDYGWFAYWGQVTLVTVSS VL: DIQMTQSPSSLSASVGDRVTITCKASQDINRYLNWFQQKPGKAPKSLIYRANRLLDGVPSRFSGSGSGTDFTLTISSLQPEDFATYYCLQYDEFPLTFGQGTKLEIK has a reported koff of 4.08e-05

The binder listed as B252 (antibody, human IgG1, V domains shown, Humanized (HFA) PT3 variant, human IgG1/kappa; also called VH93/VL80) VH: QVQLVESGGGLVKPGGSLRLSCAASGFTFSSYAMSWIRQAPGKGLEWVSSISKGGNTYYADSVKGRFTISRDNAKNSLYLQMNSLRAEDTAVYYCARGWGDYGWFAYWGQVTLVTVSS VL: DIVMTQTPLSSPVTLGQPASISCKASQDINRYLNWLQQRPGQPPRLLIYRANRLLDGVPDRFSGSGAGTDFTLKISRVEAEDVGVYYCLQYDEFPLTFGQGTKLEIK has a reported koff of 4.28e-05
